Data credit: PubChem BioAssay AID463173

test system: DeltatarO mutant; assay: S. aureus survival, RN4220 and DeltatarO strains – OD600, teichoic acid synthesis inhibitors, primary screen (AID 463173); details: S. aureus RN4220 wild type/DeltatarO growth, OD600, 18 h, screened at 18.75 µg/mL (by protocol)
Among all 52,000 compounds or so, about 4,300 (8.3%) were called active. No stated cut-off is given here; in the data, active means survival mostly below about 52% (no sharp cut-off); inactive means mostly above about 56%. The full list was thinned out, with actives kept by preference.
Return exactly one item of true for active, false for inactive

COMPOUND	CLASS NAME
Cc1ccc(-c2cc3ncc4c(n3n2)-c2cc(F)ccc2OC4)cc1	false

Hello, I am checking results. What call was entered for O=C(NCC(c1ccco1)S(=O)(=O)c1ccc(Cl)cc1)c1ccc(C(F)(F)F)cc1 (stereo not drawn) ?
true

Hello, I am checking results. What call was entered for COc1ccc(C(=O)OCc2cc(=O)n3nc(-c4cccs4)sc3n2)cc1 ?
false
